System: Mus musculus
Test: Thrombotic toxicity in ICR mouse assessed as tail bleeding time at 1.3 mmol/kg, ip after 30 mins
Type: organism-based
Conditions: in vivo, 0.5 h
PARAMETER MEASURED: Activity
Hey, just the number and the unit after it is fine.

Below are worked cases with known answers.
CC1(C)N=C(c2ccccc2)N(O)C1(C)C :: 118 s
CC1(C)N=C(c2ccc(Cl)c(Cl)c2)N(O)C1(C)C :: 118 s
CC1(C)N=C(c2ccc(Cl)cc2)N(O)C1(C)C :: 117 s

Task: Any idea what Activity was measured for CC1(C)N=C(c2ccc(Br)cc2)N(O)C1(C)C ?
Result: 118 s

Task: Which measured Activity value corresponds to COc1ccc(C2=NC(C)(C)C(C)(C)N2O)c(OC)c1 ?
Result: 119 s

Task: Field request: Activity | item: COc1ccc(C2=NC(C)(C)C(C)(C)N2O)cc1O
Result: 117 s

Task: Recorded Activity for COc1ccc(C2=NC(C)(C)C(C)(C)N2O)cc1 , please?
Result: 118 s
